FYI, the data here is from patent EP3248604A1.

tested on: WNT-TCF targets; assay: RT-qPCR gene expression in Ls174T cells; assay type: cell-based, human; settings: Homo sapiens; Ls174T; 0.5µM; 16h; over DMSO-treated controls; read-out: LGR5 expression
assay_metric: fold induction at 0.5 µM

compound: CO[C@H]1C[C@H](O[C@H]2CC[C@]3(C=O)[C@H]4CC[C@]5(C)[C@@H](C6=CC(=O)OC6)CC[C@]5(O)[C@@H]4CC[C@]3(O)C2)O[C@H](C)[C@H]1O [Cymarin, cymarin, reference compound]
assay_metric: fold induction at 0.5 µM
readout_number: 0.9
//
compound: CO[C@H]1[C@H](O)[C@H](O[C@H]2CC[C@@]3(C)[C@H](CC[C@@H]4[C@@H]3CC[C@]3(C)[C@@H](C5=CC(=O)OC5)CC[C@]43O)C2)O[C@@H](C)[C@@H]1O [Neriifolin, neriifolin, reference compound]
assay_metric: fold induction at 0.5 µM
readout_number: 1.8
